# EXPERIMENTAL_TARGET: hFKBP12 (Homo sapiens, UniProt P62942)
# Sequence (P62942 whole entry): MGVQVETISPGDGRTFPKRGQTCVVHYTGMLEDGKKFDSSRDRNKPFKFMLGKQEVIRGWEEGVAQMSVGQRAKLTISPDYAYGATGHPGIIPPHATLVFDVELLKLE
pIC50: −log10 of the molar value.
MEASURED_PROPERTY: pIC50

COMPOUND: C[C@@H]1C[C@@H]([C@H](O)CC2CC(=O)N(CC(=O)N(C)C)C(=O)C2)C(=O)[C@@H](C)C1 [DM-CHX]
MEASURED_PROPERTY: pIC50
REPORTED_VALUE: 7.43
